- Assay target: Human recombinant MMP-2 (Homo sapiens, UniProt P08253)
- Construct: made in house; host or cells: MMP-2-transfected p2AHT2 cells
- Sequence (P08253 110-660): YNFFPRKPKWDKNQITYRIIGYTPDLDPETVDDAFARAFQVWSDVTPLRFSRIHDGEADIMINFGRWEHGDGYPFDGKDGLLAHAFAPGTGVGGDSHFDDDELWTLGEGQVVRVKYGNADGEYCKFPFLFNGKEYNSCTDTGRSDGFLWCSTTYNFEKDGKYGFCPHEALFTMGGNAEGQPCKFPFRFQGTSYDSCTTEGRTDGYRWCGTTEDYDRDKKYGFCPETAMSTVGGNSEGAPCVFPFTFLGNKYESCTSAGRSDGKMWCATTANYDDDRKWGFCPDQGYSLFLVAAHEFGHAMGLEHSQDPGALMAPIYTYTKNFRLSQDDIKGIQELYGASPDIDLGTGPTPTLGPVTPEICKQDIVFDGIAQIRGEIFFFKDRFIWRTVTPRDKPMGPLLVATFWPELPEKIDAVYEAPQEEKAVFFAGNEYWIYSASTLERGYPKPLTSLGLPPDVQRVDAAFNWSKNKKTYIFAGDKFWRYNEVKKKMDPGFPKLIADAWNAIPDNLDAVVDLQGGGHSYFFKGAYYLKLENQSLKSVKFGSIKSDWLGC
- Measurement description: In vitro MMP inhibition analysis (fluorogenic peptide substrate cleavage), Ki
- Type: biochemical
- Assay conditions: Table 2
- Protocol: Several compounds and salts were analyzed in an in vitro assay to determine their ability to inhibit the MMP cleavage of peptide substrates. Inhibition constant (Ki) were calculated from the assayed compound-MMP interactions. […] The assays from which the Ki determinations were made were performed as follows. […] In the absence of MMP inhibitory activity, substrate (I) was cleaved at the Gly-Leu bond resulting in an increase of relative fluorescence. […]
Experimental readout: Ki (nM)

A selection of reference data follows.
CCN1CCC(C(=O)NO)(S(=O)(=O)c2ccc(-c3cnc(CCCC(F)(F)F)cn3)cc2)CC1 [Example 217] :: 9.06
COCCOc1ccc(-c2ccc(S(=O)(=O)C3(C(=O)NO)CCN(C4CC4)CC3)cc2)cc1F [Example 112] :: 0.168

I. O=C(NO)C1(S(=O)(=O)c2ccc(-c3ccc(OCCCC(F)(F)F)cn3)cc2)CCOCC1 [Example 144]
II. O=C(NO)C1(S(=O)(=O)c2ccc(-c3cnc(CCC(F)(F)C(F)(F)F)nc3)cc2)CCOCC1 [Example 142]
-- ask Look at I and II . Which one has the lower recorded Ki number? Field: selected label. Fill in the label of the entry you choose.
-- reply I
(I: 0.037 nM, II: 53.7 nM)
